System: NLK
Details: concentration: 1 μM, replicates: in singlicate; n = 1
readout-name: %Inh (%)
Give bare numbers, in %.

| test-smiles | u | %Inh |
| --- | --- | --- |
| CNC(=O)c1ccc(C)c(-n2c(C)cc(OCc3ccc(F)cc3F)c(Br)c2=O)c1 | % | 0 |
| CCn1c(-c2ccccc2)nc2cnccc21 | % | 11 |
| Fc1ccc(-c2nn3cccc(F)c3c2-c2ccncc2)cc1 | % | 61 |
| O=C1NC(=O)C(c2ccc(Cl)cc2)=C1Nc1cccc(Cl)c1 | % | 0 |

# next molecule below
CNc1nc(-c2ccc3c(N)n[nH]c3c2)cc(N2C[C@@H](C(=O)NC3CCCCC3)OC[C@H]2C)n1 yielded %Inh of 9

* * *

Could you please report measured %Inh for the items listed next?
System: PHKG2
Details: concentration: 1 μM, replicates: in singlicate; n = 1
Give bare numbers, in %.

# count of solved cases: 4
| test-smiles | u | %Inh |
| --- | --- | --- |
| COc1ccc(-c2coc3ccc(-c4nnc(C)o4)cc23)cc1 | % | 20 |
| Cc1ccccc1Cn1ccn2c(=O)cc(N3CCOCC3)nc12 | % | 0 |
| CN1c2ccc(-c3ccc(C(N)=O)cc3)cc2-c2[nH]ncc2S1(=O)=O | % | 14 |
| Nc1ncnc2occ(-c3ccc4c(c3)CCN4C(=O)Cc3cc(F)ccc3F)c12 | % | 0 |

Report %Inh for each item below.
1. Cc1c(Cn2c(C)c(C)n3c(=O)cc(N4CCOCC4)nc23)cccc1C(F)(F)F
2. CC(=O)c1c(C)c2cnc(Nc3ccn(C)n3)nc2n(C2CCCC2)c1=O
3. COc1ccc(CSc2nnc(-c3ccc4nccn4c3)o2)cc1C(F)(F)F
4. CCCCc1nn2ncccc2c1-c1ccnc(NC2CC2)n1
5. CC(=O)c1c(C)c2cnc(Nc3ccc(N4CCNCC4)cn3)nc2n(C2CCCC2)c1=O

0
2
0
0
12

* * *

# collection of pKd values tested on DDR1;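 further: kd values determined as follow-up on hits from a single-replicate KINOMEscan panel screen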
One number for each entry, as −log10 of the molar value.

# count of solved cases: 2
| compound | pKd |
| --- | --- |
| CS(=O)(=O)Cc1ccc(Nc2nccc(-c3c(-c4cccc(NC(=O)C5CCCCC5)c4)nn4ncccc34)n2)cc1 [GSK350559] | 7.64 |
| Cc1ccc(NC(=O)Nc2ccccc2)cc1-c1ccc(C(=O)Nc2ccncc2)cc1 [GSK1398471] | 6.74 |

Nc1nccc(-c2c(-c3ccc(F)cc3)ncn2C2CCN(Cc3ccccc3)CC2)n1 [SB-219980] yielded pKd of 6.85

* * *

Test system: EPHA3
Conditions: concentration: 1 μM, replicates: in singlicate; n = 1
Could you please report measured %Inh for the items listed next?
Numbers only, in %.

Report %Inh for each item below.
1. CS(=O)(=O)Cc1ccc(Nc2nccc(-c3c(-c4cccc(NC(=O)C5CCCCC5)c4)nn4ncccc34)n2)cc1 [GSK350559]
2. COc1ccc(Nc2nccc(N3CCC(NC(=O)C(C)c4ccc(Cl)cc4)C3)n2)cc1 (centres unmarked) [GSK1379735]

1: 16; 2: 9

* * *

Tested on: EPHB2
Details: concentration: 1 μM, replicates: in singlicate; n = 1
Could you please report measured %Inh for the items listed next?
Give bare numbers, in %.

# count of solved cases: 6
| compound | u | %Inh |
| --- | --- | --- |
| CC(=O)c1c(C)c2cnc(Nc3ccn(C)n3)nc2n(C2CCCC2)c1=O | % | 15 |
| O=C(Nc1n[nH]c2nc(-c3cccs3)c(Br)cc12)C1CC1 [SB-735297] | % | 0 |
| Cc1ccc(NC(=O)Nc2ccc(Cl)c(C(F)(F)F)c2)cc1-c1ccc(C(=O)Nc2ccncc2)cc1 [GSK1398470] | % | 17 |
| Cn1cncc1-c1cc2c(Nc3ccc(OCc4ccccc4)cc3)ncnc2cn1 [GW281179] | % | 0 |
| CC(C)c1ccc(O)cc1Nc1ccnc2ccc(C(F)(F)F)cc12 [GW482059] | % | 0 |
| Nc1ncnc2occ(-c3ccc4c(c3)CCN4C(=O)Cc3cc(F)ccc3F)c12 [GSK2645446] | % | 6 |

Report %Inh for each item below.
1. CC[C@@H]1CO[C@H](C(=O)Nc2ccccc2)CN1c1cc(-c2ccc3c(N)n[nH]c3c2)nc(NC)n1 [GSK2376236]
2. COc1ccc(Nc2nccc(-c3ccc(NC(=O)c4cc5cc(F)ccc5[nH]4)cc3)n2)cc1 [GSK1229496]

14
0

* * *

Test system: MERTK
Conditions: concentration: 1 μM, replicates: in singlicate; n = 1
%Inh below 30% gives 0 (no); %Inh at or above it gives 1 (yes).

| test-smiles | label-class |
| --- | --- |
| O=c1cc(N2CCOCC2)nc2n(Cc3cccc(Cl)c3Cl)c3ccccc3n12 | 1 (yes) |
| Cc1ccc(NC(=O)Nc2ccccc2F)cc1-c1ccc(C(=O)Nc2ccncc2)cc1 | 1 (yes) |
| CCc1ccc(-c2ccc3c(c2)-c2n[nH]cc2S(=O)(=O)N3C)cc1 | 0 (no) |
| CS(=O)(=O)CCNCc1nc(-c2ccc3ncnc(Nc4ccc5c(cnn5Cc5ccccc5)c4)c3c2)cs1.Cl.Cl | 0 (no) |
| FC(F)(F)c1ccccc1-c1cc(-c2c[nH]nc2-c2ccccn2)ccn1 | 0 (no) |
| Cn1cnc2c(N)ncnc21 | 0 (no) |

Check if %Inh >= 30% (inclusive). Item: Cc1ccc(-c2nc(Nc3ccncc3)c3ccccc3n2)s1 0 (no)

Check if %Inh >= 30% (inclusive). Item: COc1cccc(NC(=O)Nc2ccc(C)c(-c3ccc(C(=O)Nc4ccncc4)cc3)c2)c1 1 (yes)

Check if %Inh >= 30% (inclusive). Item: CC(C)c1ccc(O)cc1Nc1ccnc2ccc(C(F)(F)F)cc12 0 (no)

* * *

Could you please report measured %Inh for the items listed next?
Tested on: ERBB3
Conditions: concentration: 1 μM, replicates: in singlicate; n = 1
Numbers only, in %.

| compound | readout-name | quantitative-readout |
| --- | --- | --- |
| Cc1ccc(NC(=O)Nc2ccccc2)cc1-c1ccc(C(=O)Nc2ccncc2)cc1 [GSK1398471] | %Inh | 0 |

Report %Inh for each item below.
1. CSc1ccc(-c2nc3n(c2-c2ccncc2)CCC3)cc1 [SKF-105561]
2. O=c1cc(N2CCOCC2)nc2n(Cc3ccccc3F)ccn12 [GSK2297428]
3. c1ccc(-c2ccnc3[nH]ccc23)cc1 [SB-693578]
4. COc1ccc(CSc2nnc(-c3ccc4ncsc4c3)o2)cc1C(F)(F)F
5. COc1ccc(Nc2nccc(NCCNC(=O)Nc3cc(C)ccc3C)n2)cc1 [GSK1379899]
6. CC(=O)c1c(C)c2cnc(Nc3ccc(N4CCNCC4)cn3)nc2n(C2CCCC2)c1=O
7. CC(=O)c1c(C)c2cnc(Nc3ccn(C)n3)nc2n(C2CCCC2)c1=O
8. CNc1nc(-c2ccc3c(N)n[nH]c3c2)cc(N2C[C@@H](C(=O)NC3CCCCC3)OC[C@H]2C)n1 [GSK2375584]

1: 0; 2: 0; 3: 14; 4: 0; 5: 0; 6: 0; 7: 0; 8: 15

* * *

System: ULK2
Details: concentration: 1 μM, replicates: in singlicate; n = 1
readout-name: %Inh
Include the unit right after the number.

# count of solved cases: 7
| molecule | %Inh |
| --- | --- |
| COc1ccc(Nc2nccc(-c3ccc(NC(=O)c4cc5cc(F)ccc5[nH]4)cc3)n2)cc1 [GSK1229496] | 0% |
| COC(=O)C(NC(=O)NC1CCN(c2ccnc(Nc3ccc(F)cc3)n2)C1)c1ccccc1 (centres unmarked) [GSK1379712] | 3% |
| CS(=O)(=O)Cc1ccc(Nc2nccc(-c3c(-c4cccc(NC(=O)C5CCCCC5)c4)nn4ncccc34)n2)cc1 [GSK350559] | 20% |
| Cc1ccccc1-c1cc(-c2c[nH]nc2-c2ccccn2)ccn1 [GW680061] | 0% |
| O=C(Nc1n[nH]c2nc(-c3ccco3)c(Br)cc12)C1CCN(Cc2ccccc2)C1.O=C(O)[C@H](O)[C@@H](O)C(=O)O (centres unmarked) [SB-742034] | 19% |
| CC(=O)c1c(C)c2cnc(Nc3ccc(N4CCNCC4)cn3)nc2n(C2CCCC2)c1=O | 45% |
| COc1ccc(Nc2nccc(NCCNC(=O)Nc3cc(C)ccc3C)n2)cc1 [GSK1379899] | 0% |

# next molecule below
COC(=O)c1cccc(NC(=O)NC2CCN(c3ccnc(Nc4ccc(F)cc4)n3)C2)c1 (centres unmarked) [GSK1379725] yielded %Inh of 0%

* * *

Test system: ERK2
Construct: gene MAPK1
Settings: concentration: 1 μM, replicates: in singlicate; n = 1
Could you please report measured %Inh for the items listed next?
Answers are plain numbers, in %.

# count of solved cases: 2
| compound | readout-name | u | quantitative-readout |
| --- | --- | --- | --- |
| Cc1ccc(NC(=O)c2ccc(Cl)cc2)cc1-c1ccc(C(=O)Nc2ccncc2)cc1 | %Inh | % | 0 |
| CN1c2ccc(-c3ccc(C(N)=O)cc3)cc2-c2[nH]ncc2S1(=O)=O | %Inh | % | 4 |

Report %Inh for each item below.
1. Nc1ncnc2occ(-c3ccc4c(c3)CCN4C(=O)Cc3cc(F)ccc3F)c12
2. COc1ccc(Nc2nccc(N3CCC(NC(=O)C(C)c4ccc(Cl)cc4)C3)n2)cc1 (stereo not drawn)
3. COc1cccc(CNC(=O)NC2CCN(c3ccnc(Nc4ccc(F)cc4)n3)C2)c1 (stereo not drawn)
4. Cn1cnc2c(N)ncnc21
5. COc1ccc(CSc2nnc(-c3ccc4c(c3)CCO4)o2)cc1
6. CCn1c(-c2c(N)noc2C)nc2cnccc21
7. O=C(Nc1n[nH]c2nc(-c3ccco3)c(Br)cc12)C1CCN(Cc2ccccc2)C1.O=C(O)[C@H](O)[C@@H](O)C(=O)O (stereo not drawn)

1. 0
2. 0
3. 0
4. 0
5. 0
6. 9
7. 1

Report %Inh for each item below.
1. COc1cccc(C2=C(Nc3cc(Cl)c(O)c(Cl)c3)C(=O)NC2=O)c1
2. O=C(Nc1n[nH]c2nc(-c3cccs3)c(Br)cc12)C1CCCC1

1: 0; 2: 10
